test system: COLO 205; test: NCI tumour cell line growth inhibition, 48 h
Active and inactive are the calls of the source. Rule as the data show it: active = GI50 up to about 1.1 µM and inactive = higher.
# key: entry, value: GI50

| compound | reported-property | endpoint-result |
| --- | --- | --- |
| Cc1ccccc1-n1c(CCl)nc2ccc(Br)cc2c1=O | GI50 | 13.4 µM (inactive) |
| C/C(=N/NC(N)=S)c1ccc[nH]1 | GI50 | > 100 µM (inactive) |
| CC1=C(C#N)C(N)=C2C(C)=C(C#N)C(N)=C12 | GI50 | > 100 µM (inactive) |
| O=C(NCc1ccc(Cl)cc1)c1cc2sccc2nc1C(F)(F)F | GI50 | > 100 µM (inactive) |

# GI50 of CC(CCCCNC(=O)OC(C)(C)C)NC(=O)NC(C)CCCCNC(=O)OC(C)(C)C (stereo not drawn) = 56.6 µM (inactive)

# GI50 of C=C(C)C1CCC2(C)CC1c1c(c(C)cc3c1[nH]c1ccccc13)O2 (stereo not drawn) = > 25 µM (inactive)

# GI50 of O=C(O)CN(CCNC(=O)OCC1c2ccccc2-c2ccccc21)CCNC(=O)OCC1c2ccccc2-c2ccccc21 = 20.8 µM (inactive)

# GI50 of O=C(CSc1nc(-c2ccccc2)c(-c2ccccc2)[nH]1)N/N=C/c1ccc(O)cc1 = 19.5 µM (inactive)
